Let's look at some compounds and their measured Ki.
# measured.target: EP3 receptor (Homo sapiens)
# Construct: purchased Millipore HTS092M
# Sequence (P43115 whole entry): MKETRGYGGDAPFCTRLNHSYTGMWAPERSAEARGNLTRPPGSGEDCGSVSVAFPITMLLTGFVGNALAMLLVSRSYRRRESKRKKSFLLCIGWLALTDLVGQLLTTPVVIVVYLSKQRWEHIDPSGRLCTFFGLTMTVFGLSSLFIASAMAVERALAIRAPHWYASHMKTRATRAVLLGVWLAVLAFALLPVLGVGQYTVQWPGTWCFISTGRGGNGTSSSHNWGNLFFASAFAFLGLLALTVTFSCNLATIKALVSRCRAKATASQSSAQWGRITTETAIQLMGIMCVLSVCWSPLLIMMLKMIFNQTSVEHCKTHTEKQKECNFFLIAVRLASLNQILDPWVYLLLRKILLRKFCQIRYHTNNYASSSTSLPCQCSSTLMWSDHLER
# experiment: [3H]-PGE2 binding assay (EP3 competition binding)
# test.parameters: read-out: [3H]-PGE2 Binding Ki
Give your result in µM as a bare value.

Worked examples, 8 compounds total:
CC(C)C(O)(C(N)=O)c1ccc(-c2ccc3c(c2)OCCN3C)[nH]c1=O (stereo not shown) = 0.343
CC(C)C(/C=C1\OC(=O)NC1=O)c1ccc(-c2ccc3c(c2)N(C)CCO3)[nH]c1=O (stereo not shown) = 0.171
CCn1ncc2c(F)cc(-c3ccc(C(CC4(C)CCNC4=O)C(C)C)c(=O)[nH]3)cc21 (stereo not shown) = 0.006
CC(C)C(/C=C1\OC(=O)NC1=O)c1ccc(-c2cc(Cl)c3c(c2)ncn3C)[nH]c1=O (stereo not shown) = 0.179
CC(C)C(CC(=O)NS(=O)(=O)c1cc(Cl)c(Cl)s1)c1ccc(-c2ccc3cccc(F)c3c2)[nH]c1=O (stereo not shown) = 0.164
CCn1ncc2c(F)cc(-c3ccc(C4(O)CCCN(S(=O)(=O)C(C)C)C4)c(=O)[nH]3)cc21 (stereo not shown) = 0.002
CC(C)C(C(=O)NCCOCCN(C)C)c1ccc(-c2ccc3cccc(F)c3c2)[nH]c1=O (stereo not shown) = 0.015
CC(C)C1(c2ccc(-c3ccc4cccc(F)c4c3)[nH]c2=O)CNC(NC#N)=N1 (stereo not shown) = 0.003

# context switch: different compound, same Ki
Which Ki reading was recorded for the compound CCn1ncc2c(F)cc(-c3ccc(C4CCC5(CCCNC5=O)CC4)c(=O)[nH]3)cc21 (stereo not shown) ?
0.008
